Give Ki for every item shown.
- tested on: Norepinephrine Transporter (NET) (Homo sapiens)
- Sequence (P23975 whole entry): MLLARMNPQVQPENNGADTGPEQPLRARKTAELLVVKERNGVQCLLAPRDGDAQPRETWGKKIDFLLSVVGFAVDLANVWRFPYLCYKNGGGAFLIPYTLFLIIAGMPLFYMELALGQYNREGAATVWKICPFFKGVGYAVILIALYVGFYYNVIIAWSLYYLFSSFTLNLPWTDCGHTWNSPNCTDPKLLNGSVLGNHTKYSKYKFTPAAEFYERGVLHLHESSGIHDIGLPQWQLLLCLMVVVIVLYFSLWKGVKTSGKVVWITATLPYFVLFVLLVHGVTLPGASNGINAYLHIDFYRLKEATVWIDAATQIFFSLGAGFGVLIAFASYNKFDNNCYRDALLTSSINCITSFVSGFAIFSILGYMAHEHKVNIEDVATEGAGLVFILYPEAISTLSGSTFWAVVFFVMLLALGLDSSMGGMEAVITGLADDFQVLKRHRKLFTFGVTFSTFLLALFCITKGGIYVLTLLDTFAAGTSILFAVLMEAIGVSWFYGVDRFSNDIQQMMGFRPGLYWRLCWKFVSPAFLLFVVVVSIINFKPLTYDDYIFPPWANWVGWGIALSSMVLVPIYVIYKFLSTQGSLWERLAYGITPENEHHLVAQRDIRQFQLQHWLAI
- protocol summary: NIMH-PDSP radioligand binding, NET
- experimental conditions: read-out: NET binding affinity; Human Cloned, hot ligand Nisoxetine

# input Entry Fc1ccc(C2(NCCN3CCCC3)CC3CCC2C3)cc1 (centres unmarked) has what Ki?
# output > 10 µM

# input How about Fc1ccc(C2(NCCN3CCCCC3)CC3CCC2C3)cc1 (centres unmarked) ?
# output > 10 µM

----------
- tested on: Dopamine Transporter (DAT) (Homo sapiens, UniProt Q01959)
- Sequence (Q01959 whole entry): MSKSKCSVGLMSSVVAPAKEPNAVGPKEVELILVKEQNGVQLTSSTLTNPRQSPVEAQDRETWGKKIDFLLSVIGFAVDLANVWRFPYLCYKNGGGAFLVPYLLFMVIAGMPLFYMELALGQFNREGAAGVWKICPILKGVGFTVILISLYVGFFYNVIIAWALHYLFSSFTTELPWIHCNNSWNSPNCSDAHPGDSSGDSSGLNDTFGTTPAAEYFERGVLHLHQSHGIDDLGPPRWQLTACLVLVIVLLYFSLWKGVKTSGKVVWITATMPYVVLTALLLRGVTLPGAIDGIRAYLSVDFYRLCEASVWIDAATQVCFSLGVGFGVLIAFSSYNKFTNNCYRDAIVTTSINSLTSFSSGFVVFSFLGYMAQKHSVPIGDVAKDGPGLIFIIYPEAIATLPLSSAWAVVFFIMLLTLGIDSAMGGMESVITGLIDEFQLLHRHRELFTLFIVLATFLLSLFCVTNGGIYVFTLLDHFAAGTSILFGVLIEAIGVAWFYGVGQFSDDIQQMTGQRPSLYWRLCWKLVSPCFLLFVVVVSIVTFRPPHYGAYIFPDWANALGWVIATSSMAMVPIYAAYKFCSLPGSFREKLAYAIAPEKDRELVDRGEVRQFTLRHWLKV
- protocol summary: NIMH-PDSP radioligand binding, DAT
pKi: −log10 of the molar value.
Kindly state pKi for each of the entries shown.

# input Look up pKi with Dopamine Transporter (DAT) (Homo sapiens, UniProt Q01959) for this molecule: c1ccc(C2(NCCN3CCCCC3)CC3CCC2C3)cc1 (stereo not drawn) [Compound 5a]
# output < 5.00

# input What would you report for NC1(c2ccc(F)cc2)CC2CCC1C2 (stereo not drawn) [Compound 4b] ?
# output < 5.00

# input Can you check NC1(c2ccccc2)CC2CCC1C2 (stereo not drawn) [Compound 4a, 2-phenylbicyclo[2.2.1]heptan-2-amine] next?
# output < 5.00
